Entries and their self-cleavage
B1: Osa-1-4 twister ribozyme (parent)
chain: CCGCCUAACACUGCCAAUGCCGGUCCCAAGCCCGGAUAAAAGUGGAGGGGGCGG

# Variants of: B1
# assay-overview: self-cleavage, relative activity (ratio to wild type); higher = more cleavage; co-transcriptional

Record request: self-cleavage value, item A29G G47A
0.05

// moving on: another record for self-cleavage
Record request: self-cleavage value, item A39G G23A
0.2
